# credit: patent US6333338A

tested on: guinea pig platelets; assay: Ex vivo/vitro inhibition of platelet aggregation after administration via the gastric route in guinea pigs; set-up: species or system guinea pig (Dunkin-Hartley); conditions: Cavia porcellus, Platelet, 150 mg/kg, 1 h before blood sampling, fasted guinea pigs, read-out: % of g.r. inhibition guinea pig ex vivo, d = 150 mg/kg, 1 h
Structures can show the parent of a compound that is named as a salt.
Kindly state inhibition at 150 mg/kg for each of the entries shown.
Numbers only, in %.

See these solved cases before continuing.
CCCc1ccc(S(=O)(=O)NC(CNC(=O)CNC(=O)C(CCC2CCNCC2)CCC2CCNCC2)C(=O)O)cc1 (centres unmarked) [Example 28, Dihydrochloride] ... -73
O=C(CNC(=O)C(CCC1CCNCC1)CCC1CCNCC1)NCC(NC(=O)c1ccc2c(c1)OCO2)C(=O)O (centres unmarked) [Example 25, Dihydrochloride] ... -33
COc1ccc(C(CC(=O)O)NC(=O)CNC(=O)C(CCC2CCNCC2)CCC2CCNCC2)cc1OC (centres unmarked) [Example 8, Dihydrochloride] ... -10

Required: inhibition at 150 mg/kg, one value per compound below.
1. O=C(O)C[C@H](NC(=O)CNC(=O)C(CCC1CCNCC1)CCC1CCNCC1)C(=O)N1CCC(Cc2ccccc2)CC1 [Example 29, Dihydrochloride]
2. O=C(O)COc1cccc(C(CC(=O)O)NC(=O)CNC(=O)C(CCC2CCNCC2)CCC2CCNCC2)c1 (centres unmarked) [Example 9, Dihydrochloride]
3. O=C(O)CC(NC(=O)CNC(=O)C(CCC1CCNCC1)CCC1CCNCC1)c1ccc2c(c1)OCO2 (centres unmarked) [Example 5, Dihydrochloride]
4. O=C(O)CC(CCc1ccccc1)NC(=O)CNC(=O)C(CCC1CCNCC1)CCC1CCNCC1 (centres unmarked) [Example 15, Dihydrochloride]
5. O=C(O)CC(NC(=O)CNC(=O)C(CCC1CCNCC1)CCC1CCNCC1)c1cccnc1 (centres unmarked) [Example 12, Trihydrochloride]

Resp:
1: -35; 2: -53; 3: -63; 4: -84; 5: -74

* * *

tested on: guinea pig platelets; assay: Ex vivo/vitro inhibition of platelet aggregation after administration via the gastric route in guinea pigs; parameters: species or system guinea pig (Dunkin-Hartley); settings: Cavia porcellus, Platelet, 150 mg/kg, 1 h before blood sampling, fasted guinea pigs, read-out: % of g.r. inhibition guinea pig ex vivo, d = 150 mg/kg, 1 h
Structures can show the parent of a compound that is named as a salt.
MEASUREMENT NAME: inhibition at 150 mg/kg
Hi, when you answer, please include the unit after the number. Thanks!

The cases that follow already have their inhibition at 150 mg/kg on record.
O=C(CNC(=O)C(CCC1CCNCC1)CCC1CCNCC1)NCC(NS(=O)(=O)c1ccccc1)C(=O)O (stereo not drawn) [Example 26, Dihydrochloride] ... -77%
COc1cccc(C(CC(=O)O)NC(=O)CNC(=O)C(CCC2CCNCC2)CCC2CCNCC2)c1 (stereo not drawn) [Example 10, Dihydrochloride] ... -14%
COc1ccc(C(CC(=O)O)NC(=O)CNC(=O)C(CCC2CCNCC2)CCC2CCNCC2)cc1 (stereo not drawn) [Example 7, Dihydrochloride] ... -39%

For each of the items listed, what is its inhibition at 150 mg/kg?
1. O=C(O)C[C@H](NC(=O)CNC(=O)C(CCC1CCNCC1)CCC1CCNCC1)C(=O)NCCc1cccc2[nH]ccc12 [Example 17, Dihydrochloride]
2. CC(C)c1ccc(C(CC(=O)O)NC(=O)CNC(=O)C(CCC2CCNCC2)CCC2CCNCC2)cc1 (stereo not drawn) [Example 6, Dihydrochloride]
3. O=C(O)C[C@H](NC(=O)CNC(=O)C(CCC1CCNCC1)CCC1CCNCC1)C(=O)NC12CC3CC(CC(C3)C1)C2 [Example 16, Dihydrochloride]

Resp:
["-19%", "-9%", "-54%"]
